From: ChEMBL document CHEMBL2413072

Test: Growth inhibition of human NCI-ADR-RES cells by sulforhodamine B assay
Assay type: functional
Details: read-out: GI50
Lab note: cut-off is 3 µM. Strictly less in GI50 is T. Exactly 3 µM or more is F.

Would you please look over these solved cases?
C/C=C(/C)C(=O)O[C@@H]1CC(C)(C)C[C@H]2C3=CC[C@@H]4[C@@]5(C)CC[C@H](O)C(C)(C)[C@@H]5CC[C@@]4(C)[C@]3(C)CC[C@@]12C(=O)O
T
CC(C)=CC(=O)O[C@@H]1CC(C)(C)C[C@H]2C3=CC[C@@H]4[C@@]5(C)CCC(=O)C(C)(C)[C@@H]5CC[C@@]4(C)[C@]3(C)CC[C@@]12C(=O)O
F
CC(C)=CC(=O)O[C@@H]1CC(C)(C)C[C@H]2C3=CC[C@@H]4[C@@]5(C)CC[C@H](O)C(C)(C)[C@@H]5CC[C@@]4(C)[C@]3(C)CC[C@@]12C(=O)O
F
C/C=C(/C)C(=O)O[C@@H]1CC(C)(C)C[C@H]2C3=CC[C@@H]4[C@@]5(C)CCC(=O)C(C)(C)[C@@H]5CC[C@@]4(C)[C@]3(C)CC[C@@]12C(=O)O
F

Now, please, on to the next molecule.
-- ask Take the molecule CC1(C)C[C@@H](O)[C@]2(C(=O)O)CC[C@]3(C)C(=CC[C@@H]4[C@@]5(C)C/C(=C\C=C\c6ccccc6)C(=O)C(C)(C)[C@@H]5CC[C@]43C)[C@@H]2C1 and say whether its GI50 is less than 3 µM.
-- reply F
